# Test system: SF-295 CNS
# assay: NCI tumour cell line growth inhibition, 48 h
measured.parameter: GI50

INSERT INTO assay_data (compound, assayed_target, reported) VALUES
  ('Cn1cc(C2=C(Nc3ccccc3)C(=O)NC2=O)c2ccccc21', 'SF-295 CNS', '> 25 µM'),
  ('CCCCCCCCCCCCCC[n+]1ccc(C)cc1', 'SF-295 CNS', '3.25 µM'),
  ('Cc1nc2cc(Nc3nc(Nc4ccc(F)cc4)nc(N4CCOCC4)n3)ccc2n1Cc1ccccc1', 'SF-295 CNS', '3.01 µM'),
  ('COC(=O)[C@H](Cc1cn(C)cn1)NC(=O)[C@H](C)NC(=O)Nc1cc(C(F)(F)F)cc(C(F)(F)F)c1', 'SF-295 CNS', '> 10 µM'),
  ('CN(CCC(=O)/C(=C\c1ccccc1)c1ccc(Cl)cc1)Cc1ccccc1', 'SF-295 CNS', '2.76 µM'),
  ('Nc1nc(N)c2nc3c(nc2n1)CCCCCCCCCC3', 'SF-295 CNS', '0.509 µM'),
  ('NC(=O)c1sc(-n2cnc3cc(C(F)(F)F)ccc32)cc1OCc1ccccc1Br', 'SF-295 CNS', '> 25 µM'),
  ('CCCCNc1ccc(Nc2ccccc2)cc1', 'SF-295 CNS', '4.63 µM'),
  ('S=c1sc2c(Cl)nc(-c3cccnc3)nc2n1-c1ccccc1', 'SF-295 CNS', '> 100 µM'),
  ('Cc1ccc(-n2nnnc2-c2cnc(N3CCOCC3)nc2-c2cccc(C(F)(F)F)c2)cc1', 'SF-295 CNS', '1.1 µM'),
  ('COc1ccc(C(=O)c2sc3nc(-c4cccs4)ccc3c2N)cc1OC', 'SF-295 CNS', '3.07 µM'),
  ('CC(=O)O[C@H]1CC[C@@]2(C)C(=C/C(=N/OCCN3CCCC3)[C@H]3[C@@H]4CC[C@H](OC(C)=O)[C@@]4(C)CC[C@@H]32)C1', 'SF-295 CNS', '26.1 µM'),
  ('CN1CCN(c2nc(-c3csc(-c4cccs4)n3)cc3ccccc23)CC1', 'SF-295 CNS', '1.82 µM'),
  ('Cc1nc2ccccc2nc1N=Nc1ccccc1', 'SF-295 CNS', '6.38 µM'),
  ('NC(CSSCC(N)C(=O)O)C(=O)O (stereo not drawn)', 'SF-295 CNS', '> 100 µM'),
  ('CCCCOC1OC(COC(=O)C(C)C)C(OC(=O)C(C)C)C(O)C1OC1OC(C)C(OC(=O)CCC)C(OC(=O)C(C)C)C1O (stereo not drawn)', 'SF-295 CNS', '14.4 µM'),
  ('C[C@@H](CO)NC(=O)c1cc(-c2ccc(Cl)cc2)nn(-c2cnn(C)c2)c1=O', 'SF-295 CNS', '16.4 µM'),
  ('O=C1N(Cc2ccccc2Cl)c2ccccc2C12NN=C(c1cccc(Cl)c1)S2 (stereo not drawn)', 'SF-295 CNS', '1.71 µM');

====

# Tested on: HT29 colon
# assay: NCI tumour cell line growth inhibition, 48 h; in the data active = GI50 below about 0.43 µM; inactive = the rest
Possible outcomes: y for active, n for inactive

INSERT INTO measurements (molecule, qualitative_label) VALUES
  ('CN1CCN(c2nc(-c3csc(-c4cccs4)n3)cc3ccccc23)CC1', 'n'),
  ('Cc1nc2ccccc2nc1N=Nc1ccccc1', 'y'),
  ('Cc1cccc2c3c(sc12)C(c1ccc(F)cc1)C(C#N)=C(N)O3 (stereo not drawn)', 'y');
